# measurement_notes: Plasma concentration in Crl:NRMI mouse at 10 mg/kg, po administered via gavage measured after 30 mins by LC-MS/MS analysis
# Assay type: ADME, organism-based
measurement_name: concentration at 0.5 h

Exam item: Please report concentration at 0.5 h for the following compound: "COc1cc2nc(NCc3ccc(F)cc3)nc(NC3CCN(C(=O)OC(C)(C)C)CC3)c2cc1OC"
Marked response: 120 to 130 nM

====

# Test system: Plasmodium falciparum
# measurement_notes: Antiplasmodial activity against asynchronous form of Plasmodium falciparum 3D7 infected in human erythrocytes assessed as parasite growth inhibition at 10 uM after 48 hrs by SYBR green1 staining based flow cytometry relative to control
# Format: functional
# test_conditions: 3D7, 48 h
measurement_name: inhibition at 10 µM
Please provide the amount together with its unit, number first.

Take a look at these entries with their results.
compound	inhibition at 10 µM
CC(C)N(CCCNC(=O)Nc1ccc(C(C)(C)C)cc1)C[C@H]1O[C@@H](n2cnc3c(N)ncnc32)[C@H](O)[C@@H]1O	9.7%
c1ccc(COc2ccc3c(NC4CCN(Cc5ccccc5)CC4)nc(N4CCN(c5ccccc5)CC4)nc3c2)cc1	100%
NC1CC1c1ccc(NC(=O)[C@H](Cc2ccccc2)NC(=O)OCc2ccccc2)cc1 (stereo not given in full)	64.6%

Exam item: Please report inhibition at 10 µM for the following compound: "O=C(/C=C/c1ccccc1CSc1nc(O)cc(-c2ccccc2)n1)NO"
Marked response: 2.8%

Exam item: Please report inhibition at 10 µM for the following compound: "Cn1c(/C=C/C(=O)NO)ccc1/C=C/C(=O)c1cccc(Cl)c1"
Marked response: 89.6%

Exam item: Please report inhibition at 10 µM for the following compound: "c1ccc(CCN2CCC(Nc3nc(N4CCN(c5ccccc5)CC4)nc4ccccc34)CC2)cc1"
Marked response: 100%

Exam item: Please report inhibition at 10 µM for the following compound: "O=C(O)c1ccc(O)c2ncccc12"
Marked response: 25.4%

Exam item: Please report inhibition at 10 µM for the following compound: "CC(C)(C)OC(=O)Nc1cccc(C(=O)/C=C/c2ccc(/C=C/C(=O)NO)cc2)c1"
Marked response: 100%

Exam item: Please report inhibition at 10 µM for the following compound: "COc1ccc(CCN2CCC(Nc3nc(NCc4ccc(F)cc4)nc4ccccc34)CC2)cc1"
Marked response: 100%

Exam item: Please report inhibition at 10 µM for the following compound: "O=C(CCCCCSc1nc(-c2ccc3ccccc3c2)cc(=O)[nH]1)NO"
Marked response: 97.4%
